Items are presented alongside their recorded inhibition.
system_name: UniProt P9WGR1
assay_text: Inhibition of Mycobacterium tuberculosis InhA expressed in Escherichia coli at 100 uM after 5 mins
measurement_name: inhibition

compound="CCCCCCCCc1cccc(C2(O)NC(=O)c3cnccc32)c1 (configuration not stated)" measurement_name=inhibition reported=9%
compound="CCCCCCCCCCCCOc1cccc(C(=O)C2C=CN(CC(=O)OCC)C=C2C(N)=O)c1 (configuration not stated)" measurement_name=inhibition reported=6%
compound="C=CCOc1cccc(C2(O)NC(=O)c3cnccc32)c1 (configuration not stated)" measurement_name=inhibition reported=23%
compound="CCCCCCCCCCCCOc1cccc(C(=O)C2C=CN(CC(=O)OCCCO)C=C2C(N)=O)c1 (configuration not stated)" measurement_name=inhibition reported=3%
compound="CCCCCCCCCCCCOc1cccc(C2(O)NC(=O)c3cnccc32)c1 (configuration not stated)" measurement_name=inhibition reported=41%
compound="CCCCCCCCCCCCOc1cccc(C2(O)NC(=O)c3c[n+](CC(=O)OCCCO)ccc32)c1 (configuration not stated)" measurement_name=inhibition reported=30%
compound="CCCCCCCCCCCCc1cccc(C2(O)NC(=O)c3cnccc32)c1 (configuration not stated)" measurement_name=inhibition reported=4%

====

system_name: Enoyl-[acyl-carrier-protein] reductase [NADH] (Mycobacterium tuberculosis) (UniProt P9WGR1)
Sequence (whole entry): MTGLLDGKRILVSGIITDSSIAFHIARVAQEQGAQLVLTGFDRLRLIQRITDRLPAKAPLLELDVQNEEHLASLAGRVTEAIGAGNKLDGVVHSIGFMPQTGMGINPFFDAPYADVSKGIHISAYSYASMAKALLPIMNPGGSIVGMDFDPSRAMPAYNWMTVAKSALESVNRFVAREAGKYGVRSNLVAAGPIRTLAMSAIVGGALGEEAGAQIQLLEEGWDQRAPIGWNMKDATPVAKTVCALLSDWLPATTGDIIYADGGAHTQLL
assay_text: Inhibition of Mycobacterium tuberculosis InhA expressed in Escherichia coli at 100 uM after 5 mins
Items are presented alongside their recorded inhibition.
measurement_name: inhibition (%)

compound="O=C1NC(O)(c2cccc(Br)c2)c2ccncc21 (stereo not given)" reported=20
compound="O=C1NC(O)(c2cccc(O)c2)c2ccncc21 (stereo not given)" reported=17
compound="CCCCCCCCCc1ccc(-c2cccc(C3(O)NC(=O)c4cnccc43)c2)cc1 (stereo not given)" reported=17
compound="CCCCCCCCCCCCc1cccc(C2(O)NC(=O)c3c[n+](CC(=O)OCC)ccc32)c1 (stereo not given)" reported=91
compound="CCCCCCCCCCCCOc1cccc(C2(O)NC(=O)c3c[n+](CC(=O)OCC)ccc32)c1 (stereo not given)" reported=35
